Experiment: Stability in human liver microsomes assessed as parent compound remaining at 2 uM after 60 mins in presence of NADPH generating system by RF-MS analysis
Type: ADME, Microsome
Details: read-out: Stability
Measure: remaining at 1 h, 2 µM (%)
Please give a number only; it is taken to be in %.

Prompt line: Item "C[N+](C)(CCO)CCCCCCOc1cccc(I)c1" has what recorded remaining at 1 h, 2 µM?
Response line: 85

Prompt line: What measured remaining at 1 h, 2 µM goes with "CCCCCCOc1ccc(CCC[N+](C)(C)CCO)cc1I" ?
Response line: 93

Prompt line: // remaining at 1 h, 2 µM lookup, key: "C[N+](C)(CCO)CCCCOc1ccc(-c2ccccc2)cc1I"
Response line: 89

Prompt line: Which remaining at 1 h, 2 µM reading was recorded for the compound "CCCCCCCCCCOc1ccc(CCC[N+](C)(C)CCO)cc1I" ?
Response line: 82

Prompt line: If you can, please state the reported remaining at 1 h, 2 µM value of "C[N+](C)(CCO)CCCC#CI" .
Response line: 95

Prompt line: I'd like to know its remaining at 1 h, 2 µM. The compound in question is "OCC[N+]1(CCCCCCOc2cccc(I)c2)CCCC1"
Response line: 79

Prompt line: Any idea what remaining at 1 h, 2 µM was measured for "C[N+](C)(CCO)CCCCOc1ccccc1I" ?
Response line: 54

Prompt line: Report remaining at 1 h, 2 µM for "C[N+](C)(CCO)CCCCCCOc1ccc(I)c([N+](=O)[O-])c1" please.
Response line: 92

Prompt line: Fill in: remaining at 1 h, 2 µM of "CC[N+](CC)(CCO)Cc1ccccc1I" is ___
Response line: 100

Prompt line: Can you look up the measured remaining at 1 h, 2 µM of "OCC[N+]1(CCc2ccc(I)s2)CCCC1" for me?
Response line: 86

Prompt line: I have this compound here, "OCC[N+]1(CCCCOc2ccccc2I)CCCC1" , and I need its recorded remaining at 1 h, 2 µM.
Response line: 70

Prompt line: Query (compound): "C[N+](C)(CCO)CCCCCCOc1cccnc1I" ; field requested: remaining at 1 h, 2 µM
Response line: 86

Prompt line: Query: remaining at 1 h, 2 µM; subject: "OCC[N+]1(Cc2ccc(I)cc2)CCCC1"
Response line: 74

* * *

I'd be grateful if you could share measured remaining at 2 h, 2 µM for these entries.
Test: Stability in human plasma assessed as parent compound remaining at 2 uM after 2 hrs by RF-MS analysis
Format: ADME, cell-free
Details: read-out: Stability
Express your answer in %, writing the number without its unit.

Prompt line: Give the measured remaining at 2 h, 2 µM of "OCC[N+]1(CCc2ccc(I)cc2)CCCC1" .
Response line: 98

Prompt line: Report remaining at 2 h, 2 µM for "OCC[N+]1(Cc2ccc(I)cc2)CCCC1" please.
Response line: 81

Prompt line: Reported remaining at 2 h, 2 µM for "C[N+](C)(CCO)CCc1ccc(I)s1" : what is it?
Response line: 89

Prompt line: What value of remaining at 2 h, 2 µM has been recorded for this entry: "OCC[N+]1(CCCCCCOc2cccc(I)c2)CCCC1"
Response line: 91

Prompt line: Consider the compound "C[N+](C)(CCO)CCCCCCOc1ccc(I)c([N+](=O)[O-])c1" and give its measured remaining at 2 h, 2 µM.
Response line: 89

Prompt line: Fill blank: measured remaining at 2 h, 2 µM of the compound "C[N+](C)(CCO)CCc1cccc(I)c1" is ____.
Response line: 80

Prompt line: What does the record list as remaining at 2 h, 2 µM for "CC[N+](CC)(CCO)Cc1ccccc1I" ?
Response line: 85

Prompt line: Give its remaining at 2 h, 2 µM value. Item: "OCC[N+]1(CCCCOc2ccccc2I)CCCC1"
Response line: 91

Prompt line: remaining at 2 h, 2 µM lookup needed for "C[N+](C)(CCO)CCCCOc1ccc(-c2ccccc2)cc1I" , thanks.
Response line: 90

Prompt line: Given the entry "CCCCCCCCCCOc1ccc(CCC[N+](C)(C)CCO)cc1I" , report its measured remaining at 2 h, 2 µM.
Response line: 85

Prompt line: Please report the recorded remaining at 2 h, 2 µM for "C[N+](C)(CCO)CCCCCCOc1cccnc1I" .
Response line: 86

Prompt line: What value of measured remaining at 2 h, 2 µM is listed for "C[N+](C)(CCO)CCCC#CI" ?
Response line: 89

Prompt line: If you can, please state the reported remaining at 2 h, 2 µM value of "OCC[N+]1(Cc2cccc(I)c2)CCCC1" .
Response line: 66

Prompt line: So what does the record say about remaining at 2 h, 2 µM for "CCCCCCOc1ccc(CCC[N+](C)(C)CCO)cc1I" ?
Response line: 60

Prompt line: // lookup remaining at 2 h, 2 µM for "C[N+](C)(CCO)CCCCCCOc1cccc(I)c1"
Response line: 83

Prompt line: Param item = "OCC[N+]1(CCOc2ccccc2I)CCCC1" ; retrieve measured remaining at 2 h, 2 µM.
Response line: 81

Prompt line: Which remaining at 2 h, 2 µM is listed for "OCC[N+]1(CCc2ccc(I)s2)CCCC1" ?
Response line: 86

Prompt line: I am curious: what remaining at 2 h, 2 µM value has been reported for "C[N+](C)(CCO)CCCCOc1ccccc1I" ?
Response line: 91
